Conditions: 288.15 K; 101 kPa; Liquid
endpoint.name: speed of sound (m/s)

CCC[n+]1ccn(C)c1.[Br-] [1-methyl-3-propylimidazolium bromide]; 1699.3
CC#N; 1319.1
CN(C)C=O [dimethylformamide]; 1496.6
C[S+](C)[O-] [dimethyl sulfoxide]; 1519.1

---

Details: 308.15 K; 101 kPa; Liquid
endpoint.name: speed of sound (m/s)

C[S+](C)[O-] [dimethyl sulfoxide]; 1451.5
CC#N; 1238.4
CN(C)C=O [dimethylformamide]; 1419
CCC[n+]1ccn(C)c1.[Br-] [1-methyl-3-propylimidazolium bromide]; 1648.3

---

Details: 293.15 K; 101 kPa; Liquid
endpoint.name: mass density (kg/m3)

C[S+](C)[O-] [dimethyl sulfoxide]; 1100.31
CC#N; 782.007
CCC[n+]1ccn(C)c1.[Br-] [1-methyl-3-propylimidazolium bromide]; 1319.84
CN(C)C=O [dimethylformamide]; 948.685
